Assayed Target: HLA-B*5101 (human)
Entries and their measured binding affinity ratio (IC50 of standard peptide / IC50 of test peptide) follow.
Endpoint Label: binding affinity ratio (IC50 of standard peptide / IC50 of test peptide)

{"Binder": "QPPKLRSSVA (modifications not checked)", "Measured": 0.0002}
{"Binder": "QPFILYAHI (modifications not checked) [HPV18 E1 263 peptide …]", "Measured": 0.21}
{"Binder": "WPYLESRITV (modifications not checked) [HPV18 E1 583 peptide …]", "Measured": 0.055}
{"Binder": "QPPKLRSSV (modifications not checked)", "Measured": 0.0002}
